Please go through the items and note down their GI50.
Test system: 786-0
Assay: NCI-60 growth inhibition: 786-0 (Renal Cancer)
Type: cell-based, human
Details: Homo sapiens
One number for each entry, in µM.

Examples with answers:
# SMILES NOTATION, OUTCOME MEASURE, SCALE UNIT, DATA VALUE
rows = [
    ("C=C1C(=O)O[C@H]2[C@H]1CC/C(COC(=O)NCc1ccc(Cn3c(=O)sn(CCCI)c3=O)cc1)=C\\CC[C@@]1(C)O[C@@H]21", "GI50", "µM", 1.68),
    ("C=C1C(=O)O[C@H]2[C@H]1CC/C(COC(=O)NCc1ccc(Cn3c(=O)sn(-c4ccc(OC)cc4)c3=O)cc1)=C\\CC[C@@]1(C)O[C@@H]21", "GI50", "µM", 2.05),
    ("C=C1C(=O)O[C@H]2[C@H]1CC/C(COC(=O)NCc1ccc(Cn3c(=O)sn(CCI)c3=O)cc1)=C\\CC[C@@]1(C)O[C@@H]21", "GI50", "µM", 1.82),
    ("C=C1C(=O)O[C@H]2[C@H]1CC/C(COC(=O)NCc1ccc(Cn3c(=O)sn(CCCC)c3=O)cc1)=C\\CC[C@@]1(C)O[C@@H]21", "GI50", "µM", 2),
]

Next, consider the following compound.
Exam item: Checklist item: GI50 tested on 786-0, entry C=C1C(=O)O[C@H]2[C@H]1CC/C(COC(=O)NCc1ccc(Cn3c(=O)sn(-c4ccccc4)c3=O)cc1)=C\CC[C@@]1(C)O[C@@H]21 , value?
Marked response: 1.81
